- assay-method-text: Drug library screen, cell viability (CellTiter-Glo)
- Format: cell-based, human
- details: human
readout-kind: viability at 5 days, 10 μM (%)

>>> numeric_result("CC[C@@]1([C@@H]2O[C@@H]([C@H]3O[C@@](O)(CO)[C@H](C)C[C@@H]3C)C[C@@H]2C)CC[C@H]([C@]2(C)CC[C@]3(C[C@H](O)[C@@H](C)[C@@H]([C@@H](C)[C@@H](OC)[C@H](C)C(=O)O)O3)O2)O1")
3.45
>>> numeric_result("CO[C@@H]1C[C@@H](C[C@H]2CC[C@H](C)[C@H]([C@@H](C)C(=O)O)O2)O[C@]2(O[C@](C)([C@H]3CC[C@@](C)([C@@H]4O[C@@H]([C@H]5O[C@@](O)(CO)[C@H](C)C[C@@H]5C)C[C@@H]4C)O3)C[C@H]2C)[C@@H]1C")
3.47
>>> numeric_result("C/C=C(/C)C(=O)O[C@H]1C(C)=C2[C@H]([C@@H]1OC(=O)CCCCCCC)[C@@](C)(OC(C)=O)C[C@H](OC(=O)CCC)[C@@]1(O)[C@H]2OC(=O)[C@@]1(C)O")
2.63
